The measured values listed here are drawn from the NIST ThermoML archive (doi:10.1021/je700205n).

conditions: 323.15 K; 30000 kPa; Liquid
assay.metric: mass density (kg/m3)
Express the result in kg/m3 but write the number alone.

Any idea what mass density was measured for CCCCCCCCn1cc[n+](C)c1.O=S(=O)([N-]S(=O)(=O)C(F)(F)F)C(F)(F)F ?
1319

Any idea what mass density was measured for CCCCCCCn1cc[n+](C)c1.O=S(=O)([N-]S(=O)(=O)C(F)(F)F)C(F)(F)F ?
1345

Any idea what mass density was measured for CCn1cc[n+](C)c1.F[B-](F)(F)F [1-ethyl-3-methylimidazolium tetrafluoroborate] ?
1294

Any idea what mass density was measured for CCn1cc[n+](C)c1.O=S(=O)([N-]S(=O)(=O)C(F)(F)F)C(F)(F)F ?
1516
